This collection of values is drawn from the supplement of paper PMC10307832.

- Tested on: HCC-44
- Assay Comment: relative viability (nuclei count vs DMSO), 5 days (fraction); higher = more cells survive
- Applied Conditions: first compound 0.005 µM
Metric: relative viability
Give the value as a plain number.

relative viability measured on Nc1ccn([C@@H]2O[C@H](CO)[C@@H](O)[C@@H]2O)c(=O)n1 [Cytarabine] + CC(C)C[C@H](NC(=O)[C@H](Cc1ccccc1)NC(=O)c1cnccn1)B(O)O [Bortezomib] (partner 0.002 µM) = 0.828

relative viability measured on Nc1ccn([C@@H]2O[C@H](CO)[C@@H](O)[C@@H]2O)c(=O)n1 [Cytarabine] + N=C(N)NC(=N)NCCc1ccccc1 [Phenformin] (partner 250 µM) = 0.161

relative viability measured on Nc1ccn([C@@H]2O[C@H](CO)[C@@H](O)[C@@H]2O)c(=O)n1 [Cytarabine] + Cc1cc(Nc2cc(N3CCN(C)CC3)nc(Sc3ccc(NC(=O)C4CC4)cc3)n2)n[nH]1 [Tozasertib] (partner 0.1 µM) = 0.925

relative viability measured on COc1cc2nccc(Oc3ccc(NC(=O)Nc4cc(C)on4)c(Cl)c3)c2cc1OC [Tivozanib] + CC1(C)CCC(c2ccc(Cl)cc2)=C(CN2CCN(c3ccc(C(=O)NS(=O)(=O)c4ccc(N[C@H](CCN5CCOCC5)CSc5ccccc5)c(S(=O)(=O)C(F)(F)F)c4)cc3)CC2)C1 [Navitoclax] (partner 0.5 µM) = 1.01

relative viability measured on COc1cc2nccc(Oc3ccc(NC(=O)Nc4cc(C)on4)c(Cl)c3)c2cc1OC [Tivozanib] + CC(C)C[C@H](NC(=O)[C@H](Cc1ccccc1)NC(=O)c1cnccn1)B(O)O [Bortezomib] (partner 0.002 µM) = 0.895

relative viability measured on Nc1ccn([C@@H]2O[C@H](CO)[C@@H](O)[C@@H]2O)c(=O)n1 [Cytarabine] + O=C(CCCCCCC(=O)Nc1ccccc1)NO [Vorinostat] (partner 1 µM) = 1.2

relative viability measured on Nc1ccn([C@@H]2O[C@H](CO)[C@@H](O)[C@@H]2O)c(=O)n1 [Cytarabine] + Nc1ncn([C@H]2C[C@H](O)[C@@H](CO)O2)c(=O)n1 [Decitabine] (partner 2 µM) = 1.04

relative viability measured on Nc1ccn([C@@H]2O[C@H](CO)[C@@H](O)[C@@H]2O)c(=O)n1 [Cytarabine] + CS(=O)(=O)CCNCc1ccc(-c2ccc3ncnc(Nc4ccc(OCc5cccc(F)c5)c(Cl)c4)c3c2)o1 [Lapatinib] (partner 2 µM) = 0.93

relative viability measured on Nc1ccn([C@@H]2O[C@H](CO)[C@@H](O)[C@@H]2O)c(=O)n1 [Cytarabine] + COc1cccc2cc(-c3nc([C@H]4CC[C@H](C(=O)O)CC4)n4ncnc(N)c34)[nH]c12 [OSI-027] (partner 0.5 µM) = 0.376
